Assay: changing rate of blood pressure and heart rate by intravenous injection in anesthetized rats
Format: in vivo, Wister male rats
Conditions: Rattus norvegicus, 1 (mg/kg), Table 1, read-out: changing rate of blood pressure
reported-metric: change in vivo at 1 mg/kg (%)
Note: unit % is implicit; provide only the numeric part.

Query: What does the data say about its change in vivo at 1 mg/kg? Entry: COC(=O)CCC/C=C\C[C@H]1C(=O)C[C@@H](O)[C@@H]1CCC(=O)CCCCC=C(C)C [Compound 50]
Result: 2

Query: What does the data say about its change in vivo at 1 mg/kg? Entry: CCCCCCCC(=O)CC[C@H]1[C@H](O)CC(=O)[C@@H]1CCCCCCC(=O)OC [Compound 4]
Result: 6

Query: What does the data say about its change in vivo at 1 mg/kg? Entry: CCCCC(C)(C)C(=O)CC[C@H]1[C@H](O)CC(=O)[C@@H]1CC(=O)CCCCC(=O)OCC [Compound 12]
Result: 17

Query: What does the data say about its change in vivo at 1 mg/kg? Entry: COCCCCCC(=O)CC[C@H]1[C@H](O)CC(=O)[C@@H]1C/C=C\CC=CC(=O)OC [Compound 46]
Result: 5

Query: What does the data say about its change in vivo at 1 mg/kg? Entry: CCCCCC(=O)CC[C@H]1[C@H](O)CC(=O)[C@@H]1C/C=C\CCCC(=O)OCC [Compound 22, 13,14-dihydro-15-keto-PGE2 ethyl ester]
Result: 5

Query: What does the data say about its change in vivo at 1 mg/kg? Entry: CCCCCC(=O)CC[C@H]1[C@H](O)CC(=O)[C@@H]1C/C=C\CCCC(=O)OCCCC [Compound 24, 13,14-dihydro-15-keto-PGE2 n-butyl ester]
Result: 5

Query: What does the data say about its change in vivo at 1 mg/kg? Entry: CCCCCC(=O)CC[C@H]1[C@H](O)CC(=O)[C@@H]1C/C=C\CCCC(=O)OCCC [Compound 23]
Result: 5

Query: What does the data say about its change in vivo at 1 mg/kg? Entry: CCCCC(C)C(=O)CC[C@H]1[C@H](O)CC(=O)[C@@H]1C/C=C\CCCC(=O)OCC (some centres unmarked) [Compound 31]
Result: 14

Query: What does the data say about its change in vivo at 1 mg/kg? Entry: CCCCCC(=O)CC[C@H]1[C@H](O)CC(=O)[C@@H]1C/C=C\CCCC(=O)O [Compound 20, 13,14-dihydro-15-keto-PGE2, reference compound]
Result: -15

Query: What does the data say about its change in vivo at 1 mg/kg? Entry: CCCCC(F)C(=O)CC[C@H]1[C@H](C)CC(=O)[C@@H]1C/C=C\CCCC(=O)OCC (some centres unmarked) [Compound 40]
Result: 17

Query: What does the data say about its change in vivo at 1 mg/kg? Entry: CCCCCC(=O)CC[C@H]1[C@H](O)CC(=O)[C@@H]1CC(=O)CCCCC(=O)OC [Compound 6]
Result: 3

Query: What does the data say about its change in vivo at 1 mg/kg? Entry: CCCCCC(=O)CC[C@H]1[C@H](O)CC(=O)[C@@H]1CC(=O)CCCCC(=O)OCC [Compound 7]
Result: 5

Query: What does the data say about its change in vivo at 1 mg/kg? Entry: COCCCCCC(=O)CC[C@H]1[C@H](O)CC(=O)[C@@H]1C/C=C\CC(C)CC(=O)OC (some centres unmarked) [Compound 47]
Result: 1

Query: What does the data say about its change in vivo at 1 mg/kg? Entry: CCCCCCCC(=O)CC[C@H]1[C@H](O)CC(=O)[C@@H]1C/C=C\CCCC(=O)OC [Compound 51]
Result: 1

Query: What does the data say about its change in vivo at 1 mg/kg? Entry: CCCCC(C)(C)C(=O)CC[C@H]1[C@H](O)CC(=O)[C@@H]1C/C=C\CCCC(=O)OCC [Compound 34]
Result: 6

Query: What does the data say about its change in vivo at 1 mg/kg? Entry: CCCCCC(=O)CC[C@H]1[C@H](O)CC(=O)[C@@H]1CC(=O)CCCCC(=O)OCC (relative stereo) [Compound 8]
Result: 8

Query: What does the data say about its change in vivo at 1 mg/kg? Entry: CCCCC(C)C(=O)CC[C@H]1[C@H](O)CC(=O)[C@@H]1C/C=C\CC(C)CC(=O)OC (some centres unmarked) [Compound 32]
Result: 14

Query: What does the data say about its change in vivo at 1 mg/kg? Entry: COCCCCCC(=O)CC[C@H]1[C@H](O)CC(=O)[C@@H]1C/C=C\CCCC(=O)OC [Compound 45]
Result: 2

Query: What does the data say about its change in vivo at 1 mg/kg? Entry: CCCCCC(=O)CC[C@H]1[C@H](O)CC(=O)[C@@H]1C/C=C\CC=CC(=O)OC [Compound 27]
Result: 6

Query: What does the data say about its change in vivo at 1 mg/kg? Entry: CCCCC(C)C(=O)CC[C@H]1[C@H](O)CC(=O)[C@@H]1CC(=O)CCCCC(=O)OCC (some centres unmarked) [Compound 11]
Result: 23

Query: What does the data say about its change in vivo at 1 mg/kg? Entry: CCCCC(O)C(=O)CC[C@H]1[C@H](O)CC(=O)[C@@H]1C/C=C\CCCC(=O)OCC (some centres unmarked) [Compound 35]
Result: 17

Query: What does the data say about its change in vivo at 1 mg/kg? Entry: COC(=O)CCC/C=C\C[C@H]1C(=O)C[C@@H](O)[C@@H]1CCC(=O)CCCC(C)C [Compound 43]
Result: 14

Query: What does the data say about its change in vivo at 1 mg/kg? Entry: CCCCCC(F)C(=O)CC[C@H]1[C@H](O)CC(=O)[C@@H]1C/C=C\CCCC(=O)OC (some centres unmarked) [Compound 39]
Result: 20

Query: What does the data say about its change in vivo at 1 mg/kg? Entry: CCCCCCCC(=O)CC[C@H]1[C@H](C)CC(=O)[C@@H]1C/C=C\CCCC(=O)OC [Compound 53]
Result: 17

Query: What does the data say about its change in vivo at 1 mg/kg? Entry: CCCCCCCCC(=O)CC[C@H]1[C@H](O)CC(=O)[C@@H]1C/C=C\CCCC(=O)OC [Compound 54]
Result: 18

Query: What does the data say about its change in vivo at 1 mg/kg? Entry: CCCCCC(=O)CC[C@H]1[C@H](O)CC(=O)[C@@H]1CCCCCCC(=O)OCC [Compound 2, 13,14-dihydro-15-keto-PGE1 ethyl ester]
Result: 1

Query: What does the data say about its change in vivo at 1 mg/kg? Entry: CCCCC(F)C(=O)CC[C@H]1[C@H](O)CC(=O)[C@@H]1C/C=C\CCCC(=O)OC (some centres unmarked) [Compound 37]
Result: 56

Query: What does the data say about its change in vivo at 1 mg/kg? Entry: CCCCC(F)C(=O)/C=C/[C@H]1[C@H](O)CC(=O)[C@@H]1C/C=C\CCCC(=O)OC (some centres unmarked) [Compound 55, 15-keto-16R,S-fluoro-PGE2 methyl ester]
Result: 31

Query: What does the data say about its change in vivo at 1 mg/kg? Entry: CCCCC(F)C(=O)CC[C@H]1[C@H](C)CC(=O)[C@@H]1CC(=O)CCCCC(=O)OCC (some centres unmarked) [Compound 19]
Result: 45

---

Assay: acute toxicity LD50
Type: in vivo
Settings: mouse, in vivo; PO, male mice; read-out: LD50
reported-metric: LD50

Query: What does the data say about its LD50? Entry: CCCCC(F)C(=O)CC[C@H]1[C@H](O)CC(=O)[C@@H]1C/C=C\CCCC(=O)OC (stereo partly drawn) [Compound 37]
Result: > 500 mg/kg

Query: What does the data say about its LD50? Entry: CCCCC(F)C(=O)CC[C@H]1[C@H](O)CC(=O)[C@@H]1C/C=C\CCCC(=O)O (stereo partly drawn) [Compound 36, 13,14-dihydro-15-keto-16R,S-fluoro-PGE2]
Result: > 500 mg/kg

Query: What does the data say about its LD50? Entry: CCCCCC(=O)CC[C@H]1[C@H](O)CC(=O)[C@@H]1C/C=C\CCCC(=O)OCC [Compound 22, 13,14-dihydro-15-keto-PGE2 ethyl ester]
Result: > 4000 mg/kg

---

Test: changing rate of blood pressure and heart rate by intravenous injection in anesthetized rats
Type: in vivo, Wister male rats
Details: Rattus norvegicus, 1 (mg/kg), Table 1, read-out: changing rate of blood pressure
Procedure: (blood pressure, heart rate increasing action by intravenous injection) Wister male rats (8 weeks old) were used as test animals. The rats were applied to anesthesia by intraperitoneal administration with 1.25 g/kg of urethane. The blood pressure was determined by inserting a polyethylene tube into a femoral artery, which was connected with a pressure transducer. The heart rate was determined from R wave of electrocardiograms (ECG) induced by standard limb lead II with a tachometer. […]
reported-metric: change in vivo at 1 mg/kg
# number then unit; no other words

Query: What does the data say about its change in vivo at 1 mg/kg? Entry: CCCCC(C)C(=O)CC[C@H]1[C@H](O)CC(=O)[C@@H]1CC(=O)CCCCC(=O)OC (stereo partly shown)
Result: 22%

Query: What does the data say about its change in vivo at 1 mg/kg? Entry: `CCCCCC(=O)CC[C@H]1[C@H](O)CC(=O)[C@@H]1CC(=O)CCCCC(=O)OCCCC`
Result: 2%

Query: What does the data say about its change in vivo at 1 mg/kg? Entry: CCCCC[C@H](O)/C=C/[C@H]1[C@H](O)CC(=O)[C@@H]1CCCCCCC(=O)O [Compound 56, PGE1, reference compound]
Result: -54%

Query: What does the data say about its change in vivo at 1 mg/kg? Entry: `CCCCCC(=O)CC[C@H]1[C@H](O)CC(=O)[C@@H]1CCCCC=CC(=O)OC`
Result: 32%

Query: What does the data say about its change in vivo at 1 mg/kg? Entry: CCCCC(C)C(=O)CC[C@H]1[C@H](O)CC(=O)[C@@H]1C/C=C\CCCC(=O)OC (stereo partly shown)
Result: 14%

Query: What does the data say about its change in vivo at 1 mg/kg? Entry: `CCCCCCCC(=O)CC[C@H]1[C@H](O)CC(=O)[C@@H]1C/C=C\CCCC(=O)OCC`
Result: 13%

Query: What does the data say about its change in vivo at 1 mg/kg? Entry: `CCCCC(C)(C)C(=O)CC[C@H]1[C@H](O)CC(=O)[C@@H]1C/C=C\CCCC(=O)OC`
Result: 20%
